The following molecules are listed with their measured growth inhibition values.
# PROTOCOL_DETAILS: NCI Yeast Anticancer Drug Screen. Data for the cln2 rad14 strain (AID 165);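 also: 0% = growth equal to vehicle treated cultures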
# RUN_CONDITIONS: S. cerevisiae cln2 rad14 strain, at 5.0 µM (retest, dose inferred, filed as 0.5), active compounds read high
Compounds without any hit were thinned out: in the full panel of roughly 79,000, 15% have a hit. Active and inactive are the calls of the source. Rule as the data show it: active = growth inhibition above about 70%; inactive = the rest.

The molecule listed as `C(=Nc1ccccc1)c1cn(Cc2ccccc2)c2ccccc12` has a reported growth inhibition of 100% (active)

The molecule listed as CC(SC1=CC(=O)c2c(O)ccc(O)c2C1=O)C(=O)O (stereo unspecified) has a reported growth inhibition of -5% (inactive)

The molecule listed as COc1cc2c(cc1OC)C(N(C)C)C(c1ccccc1)=C2Cl (stereo unspecified) has a reported growth inhibition of 14% (inactive)

The molecule listed as `COc1ccc2c(c1)[n+]([O-])c(-c1ccc(C)cc1)c(N)[n+]2[O-]` has a reported growth inhibition of 34% (inactive)

The molecule listed as `O=C1Oc2cc3c(c4cccc1c24)OCN(c1ccccc1)C3` has a reported growth inhibition of -15% (inactive)

The molecule listed as `CCCCOS(=O)(=O)c1ccc(C)cc1` has a reported growth inhibition of 1% (inactive)

The molecule listed as `O=C(Nc1ccc(Cl)c(Cl)c1)Nc1cc(Cl)ccc1Oc1ccc(Cl)cc1S(=O)(=O)O` has a reported growth inhibition of 35% (inactive)

The molecule listed as `ClC(Cl)(Cl)C1=CC2c3ccccc3C1c1ccccc12` has a reported growth inhibition of -3% (inactive)

The molecule listed as CCCCCC(C)[P+](c1ccccc1)(c1ccccc1)c1ccccc1 (stereo unspecified) has a reported growth inhibition of 61% (inactive)

The molecule listed as `N#Cc1c(-c2ccc([N+](=O)[O-])cc2)c(C#N)c(=O)n(NS(=O)(=O)c2ccccc2)c1S` has a reported growth inhibition of 46% (inactive)

The molecule listed as `O=C(O)Cc1ccc2ccccc2c1-c1ccccc1` has a reported growth inhibition of -3% (inactive)

---

# PROTOCOL_DETAILS: NCI Yeast Anticancer Drug Screen. Data for the rad50 strain (AID 155);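 also: 0% = growth of vehicle-only cultures of the same strain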
# RUN_CONDITIONS: S. cerevisiae rad50 strain growth inhibition; at 50.0 µM
Compounds without any hit were thinned out: in the full panel of roughly 79,000, 15% have a hit. Activity calls are given as the source filed them. No stated cut-off is given here; in the data, active means growth inhibition above about 70%; inactive means the rest.
Outcome (select one): active, inactive

CC(=O)Oc1ccc(/C=C2\N=C(c3ccccc3)OC2=O)c(OC(C)=O)c1	inactive
C/C(=N\NC(=S)NC12CC3CC(CC(C3)C1)C2)c1ccccn1	active
COC(=O)CCCC(=O)NC1=C(Nc2ccccc2)C(=O)c2ccccc2C1=O	inactive
O=C1c2ccccc2C(=O)c2sc(Nc3ccc([N+](=O)[O-])cc3)nc21	inactive

With those in mind, consider the next molecule.
Any idea what this test logged for `O=C(Nc1ccc2c(c1)Cc1cc([N+](=O)[O-])c(F)cc1-2)C(F)(F)F` ? inactive

---

# PROTOCOL_DETAILS: NCI Yeast Anticancer Drug Screen. Data for the bub3 strain (AID 167)
# RUN_CONDITIONS: S. cerevisiae bub3 mutant strain, at 5.0 µM (retest, dose inferred, filed as 0.5), active compounds read high
This is part of a sample that, as a whole, favours compounds with a hit. Of some 79,000 tested, about 15% had one in any assay.
PARAMETER: growth inhibition (%)
The figure you give is taken to be in %; do not add the unit.

The compound listed as `Cc1cc(N2C(=O)CCSC2=S)ccc1Cl` has a reported growth inhibition of 45

The compound listed as `COC1=CC(=O)c2c(ccc3ncnc(N)c23)C1=O` has a reported growth inhibition of 19

The compound listed as `C=CCCCCCCCCC(=O)CCCCCCCCC=C` has a reported growth inhibition of -1

The compound listed as `COC(=O)CCCC(=O)NC1=C(Nc2ccccc2)C(=O)c2ccccc2C1=O` has a reported growth inhibition of 33

The compound listed as `Cc1cccc2c(CC(=O)O)cccc12` has a reported growth inhibition of -1

The compound listed as `CC(=O)OCCn1c2nc(=O)[nH]c(=O)c-2nc2cc(C)c(C)cc21` has a reported growth inhibition of -1

The compound listed as `CCCCCCCCCCCCCCCCOc1ccc(S(=O)(=O)N/N=c2/sc3ccc(S(=O)(=O)O)cc3n2C)cc1C(=O)O` has a reported growth inhibition of -3

---

# PROTOCOL_DETAILS: NCI Yeast Anticancer Drug Screen. Data for the mec2-1 strain (AID 157)
# RUN_CONDITIONS: S. cerevisiae mec2-1 strain, at 50.0 µM (retest, dose inferred, filed as 5.0), active compounds read high
Compounds without any hit were thinned out: in the full panel of roughly 79,000, 15% have a hit.
PARAMETER: growth inhibition (%)
The figure you give is taken to be in %; do not add the unit.

Answered examples (3):
CCN(CC)CC(O)c1ccc(/C=C/c2ccc(Cl)cc2)cc1 (stereo not drawn)	97
C=CCc1ccc2c(C)cc[n+](C)c2c1O	99
Oc1ccc(Cc2cc(Cl)cc(Cl)c2O)cc1Cl	99

The compound listed as `O=C(O)CN(CCN1CC(=O)OC(=O)C1)CCN1CC(=O)OC(=O)C1` has a reported growth inhibition of 49

The compound listed as `Nc1ccc2ccc3cccc4ccc1c2c34` has a reported growth inhibition of 98

The compound listed as COc1cccc2c1C(=O)c1c(O)c3c(c(O)c1C2=O)C[C@@](O)(/C(C)=N/NS(C)(=O)=O)C[C@@H]3OC1CC(N)C(O)C(C)O1 (stereo partly drawn) has a reported growth inhibition of 80

The compound listed as `CCOC(=O)c1c(N2CCCC2)nsc1Nc1ccc(F)cc1` has a reported growth inhibition of 93

The compound listed as `CCc1ccc(N(C(C)=O)C2=C(Cl)C(=O)c3ccccc3C2=O)cc1` has a reported growth inhibition of 99

---

# PROTOCOL_DETAILS: NCI Yeast Anticancer Drug Screen. Data for the mec2-1 strain (AID 157)
# RUN_CONDITIONS: S. cerevisiae mec2-1 strain, at 50.0 µM, active compounds read high
Compounds without any hit were thinned out: in the full panel of roughly 79,000, 15% have a hit.
Please mark Fulfilled if the recorded growth inhibition is equal to or greater than 50%, and Not fulfilled if it falls below.

Cc1nc2[nH]cc(C)c2c(=O)[nH]1	Not fulfilled
Cc1cc(Br)c2ccccc2c1N	Fulfilled
O=C(c1ccccc1)c1ccc(Br)cc1O	Not fulfilled
Oc1ccc(Br)cc1C=Nc1c(NC2CCCCC2)oc2ccc(Br)cc12	Not fulfilled
O=C(CCc1ccccc1)OCC1OC(OC(=O)CCc2ccccc2)C(OC(=O)CCc2ccccc2)C(OC(=O)CCc2ccccc2)C1OC(=O)CCc1ccccc1 (configuration not stated)	Not fulfilled
C=C1CC[C@@H]2C(C)(C)C(O)CCC2(C)C1COc1ccc2ccc(=O)oc2c1 (some centres not stated)	Fulfilled

In plain terms: is recorded growth inhibition at least 50% for CC(C(=O)O)C(N)C(=O)O (configuration not stated) ? Fulfilled

In plain terms: is recorded growth inhibition at least 50% for `S=C(N/N=C(/c1ccccc1)c1ccccn1)Nc1ccccc1` ? Fulfilled

In plain terms: is recorded growth inhibition at least 50% for CCCCCCCSCC1C(=O)C23CC1CCC2C12COC(O)C1C(C)(C)C(O)CC2OC3=O (configuration not stated) ? Fulfilled

In plain terms: is recorded growth inhibition at least 50% for `O=CCCCc1cc2c(cc1Br)CCC2` ? Fulfilled

In plain terms: is recorded growth inhibition at least 50% for `O=C(NNc1ccccc1)c1ccccc1Cl` ? Fulfilled

In plain terms: is recorded growth inhibition at least 50% for `Nc1cccc2cccnc12` ? Not fulfilled

---

# PROTOCOL_DETAILS: NCI Yeast Anticancer Drug Screen. Data for the sgs1 mgt1 strain (AID 161);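 also: 0% = growth of cultures given vehicle only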
# RUN_CONDITIONS: S. cerevisiae sgs1 mgt1 strain, at 50.0 µM, active compounds read high
The panel holds about 79,000 compounds, 15% with a hit somewhere; the sample as a whole holds those more often. Where a SMILES comes first, the peptide text is derived from it. [ ]: non-standard residue; d: D form. The star is where a group is joined. Phe(2-OMe) = COc1ccccc1C[CH](N)C(=O)O; Cbz = O=C(OCc1ccccc1)*; OBn = c1ccc(CO*)cc1
Please mark criterion met if the recorded growth inhibition is equal to or greater than 90%, and criterion not met if it falls below.

Solved entries:
CC1CCC2(CC1)OCC(C)O2 (stereo not drawn)	criterion not met
COc1cccc2c1C(=O)c1c(O)c3c(c(O)c1C2=O)C[C@@](O)(C(C)=O)C[C@@H]3OC1CC([N+]([O-])(Cc2ccccc2)Cc2ccccc2)C(O)C(C)O1 (stereo partly drawn)	criterion not met
N#CC(Br)(C#N)Cc1ccccc1	criterion met

In plain terms: is recorded growth inhibition at least 90% for COC(=O)C(Cc1ccccc1OC)NC(=O)C(CC(=O)OCc1ccccc1)NC(=O)OCc1ccccc1 (stereo not drawn) (Cbz-Asp(OBn)-[Phe(2-OMe)]-OMe; configuration not given here) ? criterion not met

In plain terms: is recorded growth inhibition at least 90% for `C/C(=N\NC(=S)N1CCN(c2cnccn2)CC1)c1ccccn1` ? criterion not met

In plain terms: is recorded growth inhibition at least 90% for `CCn1nc(-c2ccccc2)c2c1N(C)c1ccccc1-n1c(-c3ccccc3)nnc1-2` ? criterion met

In plain terms: is recorded growth inhibition at least 90% for CC(=O)Oc1ccc(C)c(C(C)C(Cl)(Cl)Cl)c1 (stereo not drawn) ? criterion not met

In plain terms: is recorded growth inhibition at least 90% for `O=c1sc(=S)[nH]c2ccccc12` ? criterion not met

In plain terms: is recorded growth inhibition at least 90% for `C=C(CN(C)C)C(=O)c1ccccc1` ? criterion not met

In plain terms: is recorded growth inhibition at least 90% for `CN(C)C(=S)N/N=C/c1ccccn1` ? criterion met

In plain terms: is recorded growth inhibition at least 90% for `O=C(O)c1c([N+](=O)[O-])cc(C(F)(F)F)cc1[N+](=O)[O-]` ? criterion not met

Provenance of the data: PubChem BioAssay (NCI)
